The measurements presented in this section are drawn from patent US20140206681A1.

# System: HeLa cells
# Measurement description: [3H]Adenosine uptake functional cellular assay
# Format: cell-based
# Stated conditions: Homo sapiens, HeLa, accumulation of [3H]adenosine into HeLa cells; compound range 10 μM to […]; read-out: Adenosine uptake inhibition IC50
Value type: log10 of IC50 (log10 of the value in nM)
Hey, these are logged values: log10 of IC50, nM being the unit before logging.

Example molecules with recorded log10 of IC50:
Molecule: Nc1ncc(F)n2c([C@@H]3CC[C@H]4CCC(=O)N4C3)nc(-c3ccc(C(=O)Nc4cc(C(F)(F)F)ccn4)cc3O)c12 [Example 165]
Recorded number: 3.19
//
Molecule: C[C@@H]1OC(=N)N2C[C@H](c3nc(-c4ccc(C(=O)Nc5cc(C(F)(F)F)ccn5)cc4)c4c(N)nccn34)CC[C@@H]12 [Example 96]
Recorded number: 3.06
//
Molecule: COc1cc(C(=O)Nc2cc(C(F)(F)F)ccn2)cc(F)c1-c1nc([C@@H]2CC[C@H]3CCC(=O)N3C2)n2c(Cl)cnc(N)c12 [Example 217]
Recorded number: 2.85
//
Molecule: C[C@H]1CC(=O)N2C[C@H](c3nc(-c4ccc(C(=O)Nc5cc(C(F)(F)F)ccn5)cc4)c4c(N)nccn34)CC[C@H]12 [Example 64]
Recorded number: 2.06
//
Molecule: Nc1nccn2c([C@@H]3CC[C@H]4CCC(=O)N4C3)nc(-c3ccc(C(=O)Nc4cc5ccccc5cn4)cc3)c12 [Example 106]
Recorded number: 2.29
//
Molecule: CCOc1cc(C(=O)Nc2ncc(C)s2)ccc1-c1nc([C@@H]2CC[C@H]3CCC(=O)N3C2)n2c(F)cnc(N)c12 [Example 164]
Recorded number: 2.91
//
Molecule: Nc1nccn2c([C@@H]3CC[C@H]4CCC(=O)N4C3)nc(-c3ccc(C(=O)Nc4cc(C(F)(F)F)ccn4)cc3)c12 [Example 4]
Recorded number: 1.79
//
Molecule: C[C@H]1OC[C@@H]2CC[C@@H](c3nc(-c4ccc(C(=O)Nc5cc(C(F)(F)F)ccn5)cc4)c4c(N)nccn34)CN2C1=O [Example 77]
Recorded number: 1.49

Request: Reported log10 of IC50, molecule CCOc1cc(C(=O)Nc2cc(C(F)(F)F)n(C)n2)ccc1-c1nc([C@@H]2CC[C@H]3CCC(=O)N3C2)n2ccnc(N)c12 [Example 131] : ____
Result: 3.44

Request: Next entry: COc1cccc(NC(=O)c2ccc(-c3nc([C@@H]4CC[C@H]5CCC(=O)N5C4)n4ccnc(N)c34)cc2)n1 [Example 129]
Result: 1.59

Request: Moving on to CCc1nsc(NC(=O)c2ccc(-c3nc([C@@H]4CC[C@H]5CCC(=O)N5C4)n4ccnc(N)c34)cc2)n1 [Example 178]
Result: 3.74

Request: Now try N#Cc1cnc(NC(=O)c2ccc(-c3nc([C@@H]4CC[C@H]5CCC(=O)N5C4)n4ccnc(N)c34)cc2)cc1C(F)(F)F [Example 117] .
Result: 2.01

----------
# Experimental target: BTK enzyme (recombinant full-length BTK, hBTK) (Homo sapiens, UniProt Q06187)
# Construct: recombinant protein from baculovirus-transfected Sf9 cells: full-length BTK, 6HIS-tag cleaved; 6HIS (cleaved yes); made in house; host or cells: baculovirus-transfected Sf9 cells
# Sequence (Q06187 whole entry): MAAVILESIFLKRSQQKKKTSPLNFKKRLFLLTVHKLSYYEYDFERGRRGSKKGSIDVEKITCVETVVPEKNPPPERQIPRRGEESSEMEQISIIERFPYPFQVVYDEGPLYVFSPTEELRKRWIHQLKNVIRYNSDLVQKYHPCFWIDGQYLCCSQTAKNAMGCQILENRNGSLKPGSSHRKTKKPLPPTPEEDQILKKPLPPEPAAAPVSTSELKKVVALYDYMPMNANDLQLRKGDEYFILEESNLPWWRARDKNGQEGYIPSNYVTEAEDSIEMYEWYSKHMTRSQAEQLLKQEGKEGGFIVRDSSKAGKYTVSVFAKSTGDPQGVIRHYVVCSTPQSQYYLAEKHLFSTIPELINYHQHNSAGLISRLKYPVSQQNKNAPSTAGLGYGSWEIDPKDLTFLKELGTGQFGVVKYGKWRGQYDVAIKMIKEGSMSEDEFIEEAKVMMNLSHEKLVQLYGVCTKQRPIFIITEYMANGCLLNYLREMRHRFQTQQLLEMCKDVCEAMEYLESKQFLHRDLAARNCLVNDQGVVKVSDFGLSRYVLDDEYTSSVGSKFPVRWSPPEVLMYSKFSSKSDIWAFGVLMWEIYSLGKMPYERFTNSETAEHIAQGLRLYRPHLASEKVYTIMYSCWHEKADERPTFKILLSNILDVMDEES
# Measurement description: BTK enzyme activity assay, LANCE TR-FRET
# Format: biochemical
# Stated conditions: 50 pM hBTK, 2 μM biotin-A5-peptide, 25 μM ATP; 60 min compound & enzyme incubation; read-out: IC50 BTK activity value
Quick rule for you: IC50 under 0.5 nM gets Criterion met, anything else gets Criterion not met.

Solved entries:
Sample smiles: C[C@@H]1OC(=O)N2C[C@H](c3nc(-c4ccc(C(=O)Nc5cc(C6CC6)ccn5)cc4)c4c(N)nccn34)CC[C@@H]12
Experimental target: BTK enzyme (recombinant full-length BTK, hBTK) (Homo sapiens, UniProt Q06187)
Class assignment: Criterion not met

Sample smiles: Nc1nccn2c([C@@H]3CC[C@H]4CCCC(=O)N4C3)nc(-c3ccc(C(=O)Nc4cc(C(F)(F)F)ccn4)cc3F)c12
Experimental target: BTK enzyme (recombinant full-length BTK, hBTK) (Homo sapiens, UniProt Q06187)
Class assignment: Criterion not met

Sample smiles: Nc1nccn2c([C@@H]3CC[C@H]4CCC(=O)N4C3)nc(-c3ccc(C(=O)Nc4cc5ccccc5cn4)cc3)c12
Experimental target: BTK enzyme (recombinant full-length BTK, hBTK) (Homo sapiens, UniProt Q06187)
Class assignment: Criterion met

Sample smiles: N#C/N=C1\CC[C@@H]2CC[C@@H](c3nc(-c4ccc(C(=O)Nc5cc(C(F)(F)F)ccn5)cc4)c4c(N)nccn34)CN12
Experimental target: BTK enzyme (recombinant full-length BTK, hBTK) (Homo sapiens, UniProt Q06187)
Class assignment: Criterion met

Sample smiles: CCOc1cc(C(=O)Nc2cc(C(F)(F)F)ccn2)ccc1-c1nc([C@@H]2CC[C@@H]3N(C2)C(=O)CC3(C)C)n2ccnc(N)c12
Experimental target: BTK enzyme (recombinant full-length BTK, hBTK) (Homo sapiens, UniProt Q06187)
Class assignment: Criterion met

Sample smiles: Nc1nccn2c([C@@H]3CC[C@H]4CCC(=O)N4C3)nc(-c3ccc(C(=O)Nc4nccc(C(F)(F)F)n4)cc3)c12
Experimental target: BTK enzyme (recombinant full-length BTK, hBTK) (Homo sapiens, UniProt Q06187)
Class assignment: Criterion not met

Sample smiles: C=C[C@@H]1OC(=O)N2C[C@H](c3nc(-c4ccc(C(=O)Nc5cc(C(F)(F)F)ccn5)cc4)c4c(N)nccn34)CC[C@@H]12
Experimental target: BTK enzyme (recombinant full-length BTK, hBTK) (Homo sapiens, UniProt Q06187)
Class assignment: Criterion not met

Request: Determine whether this compound shows IC50 lower than 0.5 nM (ties excluded): `COc1cc(C(=O)Nc2cc(C(F)(F)F)ccn2)ccc1-c1nc([C@H]2CC[C@@H]3CC(C)(C)C(=O)N3C2)n2ccnc(N)c12`
Result: Criterion not met
